Measured values drawn from patent US20250101041A1 for this set.

Listed here: items and their measured pEC50.
Target: UniProtKB P08173
Assay: mAChR M4 cell-based functional assay: calcium mobilization (Fluo-4, FDSS), potentiation of EC20 acetylcholine response in hM4-Gqi5 CHO-K1 cells
Conditions: potentiation of EC20 acetylcholine response, calcium mobilization, human M4
// field semantics: pEC50 = negative decimal log of concentration (mol/L)

# annotated cases, reported pEC50 shown
molecule: Cc1cc(F)c(F)c(-c2cnc3c(c2)CN(c2nn4c(=O)ccnc4c(C)c2C)CC3)c1 [Compound 1-341]
pEC50: 6.17

molecule: Cc1cc2nccc(=O)n2nc1N1CCc2ncc(NCC(C)C)cc2C1 [Compound 2-90]
pEC50: 6.10

molecule: Cc1cc2nccc(=O)n2nc1N1CCc2ncc(-c3ccc(F)c(Cl)c3)cc2C1 [Compound 1-59]
pEC50: 6.61

Below: the item to evaluate.
response.value for Cc1ncc(CNc2cnc3c(c2)CN(c2nn4c(=O)ccnc4cc2C)CC3)o1 [Compound 2-129] (field: pEC50) = 6.16

---

Measured Emax at 30 µM values are reported for all entries that follow.
Molecular target: human mAChR M4 (Homo sapiens, UniProt P08173)
Construct: expressed in transfected cells; host or cells: CHO-K1 (American Type Culture Collection), stably expressing hM4 and Gqi5
Sequence (P08173 whole entry): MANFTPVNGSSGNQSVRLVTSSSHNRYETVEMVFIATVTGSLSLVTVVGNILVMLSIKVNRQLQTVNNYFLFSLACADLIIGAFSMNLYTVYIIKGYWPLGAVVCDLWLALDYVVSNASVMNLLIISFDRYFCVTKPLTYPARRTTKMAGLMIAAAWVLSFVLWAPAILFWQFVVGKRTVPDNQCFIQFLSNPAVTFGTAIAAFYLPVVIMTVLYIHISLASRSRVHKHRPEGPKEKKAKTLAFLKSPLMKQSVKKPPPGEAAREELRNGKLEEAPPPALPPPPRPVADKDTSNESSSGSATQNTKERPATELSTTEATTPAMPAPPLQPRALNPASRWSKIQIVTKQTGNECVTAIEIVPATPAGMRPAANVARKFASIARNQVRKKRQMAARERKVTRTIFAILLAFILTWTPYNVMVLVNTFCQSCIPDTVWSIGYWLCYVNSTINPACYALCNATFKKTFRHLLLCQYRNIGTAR
Assay: mAChR M4 cell-based functional assay: calcium mobilization (Fluo-4, FDSS), potentiation of EC20 acetylcholine response in hM4-Gqi5 CHO-K1 cells
Conditions: CHO-K1, % ACh maximum at 30 μM; human M4
API: value field is a number in %; no unit string.

compound: Cc1cc(F)c(F)c(-c2cnc3c(c2)CN(c2nn4c(=O)ccnc4c(C)c2C)CC3)c1 [Compound 1-341]
recorded_measurement: 75
--
compound: COc1ccncc1-c1cnc2c(c1)CN(c1nn3c(=O)cc(C)nc3cc1C)CC2 [Compound 1-295]
recorded_measurement: 96
--
compound: Cc1cc2nccc(=O)n2nc1N1CCc2ncc(-c3c(C)nn(C)c3C)cc2C1 [Compound 1-424]
recorded_measurement: 84
--
compound: Cc1cc2ncc(-c3ccccc3)c(=O)n2nc1N1CCc2ncc(C(F)(F)F)cc2C1 [Compound 1-21]
recorded_measurement: 75
--
compound: COCc1cc(=O)n2nc(N3CCc4ncc(-c5cnc(OC)cc5C)cc4C3)c(C)c(C)c2n1 [Compound 1-262]
recorded_measurement: 99

Quick note, Emax at 30 µM for COc1cc(C)c(-c2cnc3c(c2)CN(c2nn4c(=O)ccnc4c(C)c2C)CC3)cn1 [Compound 1-139] landed at 98

Record summary for Cc1cc2nccc(=O)n2nc1N1CCc2ncc(Nc3ccc(F)cc3)cc2C1 [Compound 2-63] : reported Emax at 30 µM = 91

---

Target: human mAChR M4 (Homo sapiens, UniProt P08173)
Construct: expressed in transfected cells; host or cells: CHO-K1 (American Type Culture Collection), stably expressing hM4 and Gqi5
Assay: mAChR M4 cell-based functional assay: calcium mobilization (Fluo-4, FDSS), potentiation of EC20 acetylcholine response in hM4-Gqi5 CHO-K1 cells
Details: CHO-K1, % ACh maximum at 30 μM; human M4
measurement_name: Emax at 30 µM (%)
Answer in %, number only, no unit symbol.

compound_structure_string: Cc1cc2nccc(=O)n2nc1N1CCc2ncc(-c3cncc(C(C)(C)O)c3)cc2C1
Emax at 30 µM [%]: 82

compound_structure_string: Cc1c(N2CCc3ncc(N4CCOC(C)(C)C4)cc3C2)nn2c(=O)cc(C(F)F)nc2c1C
Emax at 30 µM [%]: 90

compound_structure_string: Cc1cc(=O)n2nc(N3CCc4ncc(-c5ccccc5C(F)(F)F)cc4C3)c(C)cc2n1
Emax at 30 µM [%]: 60

compound_structure_string: Cc1c(N2CCc3ncc(N4CCOC4=O)cc3C2)nn2c(=O)ccnc2c1C
Emax at 30 µM [%]: 98

compound_structure_string: Cc1cc2nccc(=O)n2nc1N1CCc2ncc(-c3ccn(C)c(=O)c3)cc2C1
Emax at 30 µM [%]: 83

compound_structure_string: Cc1cc(=O)n2nc(N3CCc4ncc(-c5ccsc5)cc4C3)c(C)cc2n1
Emax at 30 µM [%]: 87

Per the record, `Cc1cc(=O)n2nc(N3CCc4ncc(-c5ccncc5)cc4C3)c(C)cc2n1` has Emax at 30 µM of 86

The value of Emax at 30 µM measured for the compound `COc1ccc(-c2cnc3c(c2)CN(c2nn4c(=O)ccnc4cc2C)CC3)c(C)n1` turned out to be 84

Emax at 30 µM reading for `Cc1cc(=O)n2nc(N3CCc4ncc(-c5cc(F)ccc5C)cc4C3)c(C)c(C)c2n1` : 87

Sample `Cc1c(N2CCc3ncc(-n4cccn4)cc3C2)nn2c(=O)ccnc2c1C` ; Emax at 30 µM observed: 77

`Cc1ccc(F)cc1-c1cnc2c(c1)CN(c1nn3c(=O)cc(C(F)F)nc3c(C)c1C)CC2` has a reported Emax at 30 µM of 91

Lab note: measured Emax at 30 µM of `Cc1cc2nc(C(F)F)cc(=O)n2nc1N1CCc2ncc(N3CCCn4nccc43)cc2C1` was 88

The compound identified as `Cc1cc(=O)n2nc(N3CCc4ncc(-c5ccncc5)cc4C3)c(C)c(C)c2n1` registered its Emax at 30 µM at 82
